target-of-assay: T1, rhesus CD11a (rhesus, UniProt H9Z8N3 26-1169)
T1 construct: whole, on cells; On rhesus peripheral blood lymphocytes or leukocytes; also called rhCD11a
T1 sequence: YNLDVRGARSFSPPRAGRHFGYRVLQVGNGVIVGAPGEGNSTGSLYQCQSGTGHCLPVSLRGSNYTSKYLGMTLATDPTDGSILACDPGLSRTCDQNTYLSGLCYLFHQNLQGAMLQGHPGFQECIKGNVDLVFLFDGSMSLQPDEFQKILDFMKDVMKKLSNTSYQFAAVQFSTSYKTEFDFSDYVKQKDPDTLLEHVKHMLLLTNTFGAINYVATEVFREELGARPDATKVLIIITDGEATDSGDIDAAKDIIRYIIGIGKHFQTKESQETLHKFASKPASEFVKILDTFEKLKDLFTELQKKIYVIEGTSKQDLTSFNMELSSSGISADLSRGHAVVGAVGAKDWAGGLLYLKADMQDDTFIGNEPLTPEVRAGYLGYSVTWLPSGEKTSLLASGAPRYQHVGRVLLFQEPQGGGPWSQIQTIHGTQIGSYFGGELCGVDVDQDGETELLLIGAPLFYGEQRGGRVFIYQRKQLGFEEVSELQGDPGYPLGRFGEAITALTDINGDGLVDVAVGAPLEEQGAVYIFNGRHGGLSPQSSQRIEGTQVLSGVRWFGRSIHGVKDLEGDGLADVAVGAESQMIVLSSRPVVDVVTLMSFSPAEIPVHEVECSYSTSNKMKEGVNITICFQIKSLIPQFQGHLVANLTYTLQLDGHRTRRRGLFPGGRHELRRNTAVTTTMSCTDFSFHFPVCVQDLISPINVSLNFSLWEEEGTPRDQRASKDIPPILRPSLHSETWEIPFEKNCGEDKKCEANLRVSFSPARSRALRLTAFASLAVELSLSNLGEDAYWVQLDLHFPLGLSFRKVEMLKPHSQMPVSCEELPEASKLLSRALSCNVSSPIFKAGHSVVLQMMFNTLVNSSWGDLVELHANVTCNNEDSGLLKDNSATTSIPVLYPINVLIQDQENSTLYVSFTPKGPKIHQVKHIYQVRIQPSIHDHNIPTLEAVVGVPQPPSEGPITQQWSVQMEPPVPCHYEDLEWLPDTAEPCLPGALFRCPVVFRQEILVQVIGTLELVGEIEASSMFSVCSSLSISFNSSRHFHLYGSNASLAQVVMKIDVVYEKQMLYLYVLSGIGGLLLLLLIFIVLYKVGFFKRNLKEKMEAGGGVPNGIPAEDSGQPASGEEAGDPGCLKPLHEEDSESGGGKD
measurement-description: rhesus PBL binding
outcome-measure: Mutant EC50/HuIgG1 EC50
Entry format: amount then unit.

Task: // Mutant EC50/HuIgG1 EC50 lookup, key: HuIgG1 mutant AspH54Lys (antibody, V domains shown, HuIgG1 mutant, human IgG1; Kabat numbering; also called AspH54 change to Lys) VH: EVQLVESGGGLVQPGGSLRLSCAASGYSFTGHWMNWVRQAPGKGLEWVGMIHPSKSETRYNQKFKDRFTISVDKSKNTLYLQMNSLRAEDTAVYYCARGIYFYGTTYFDYWGQGTLVTVSS VL: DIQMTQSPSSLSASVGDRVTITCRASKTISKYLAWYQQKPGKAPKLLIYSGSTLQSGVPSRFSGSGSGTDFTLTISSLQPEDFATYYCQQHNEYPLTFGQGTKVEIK
Output: 3.8 ratio
